# System: MALME-3M melanoma
# assayProcedure: NCI-60 one-dose screen, 48 h
# testParameters: 10 µM unless noted
This is part of a sample that, as a whole, favours compounds with a hit. Of some 83,000 tested, about 20% had one in any assay. Activity calls are given as the source filed them. The calls were made as follows: active = growth percent below 10; inactive = the rest.
Choose the fitting class; nothing outside Y for active, N for inactive is accepted.

Here's what some known entries look like.
Please let me know the test result on file for CCOc1ccc2nc3ccc(Cl)cc3nc2c1 .
N

Please let me know the test result on file for CC(=O)NNC(=O)c1sc(NC(C)=O)nc1C .
N

Please let me know the test result on file for Cc1ccc(OCCn2ccc(=O)n(CCOc3ccc(Cl)cc3C(=O)c3cc(C)cc(C)c3)c2=O)cc1 .
N

---
Please let me know the test result on file for CNc1nc2ncn(C)c2c(=O)[nH]1 .
N

Please let me know the test result on file for CC(CCN1CCN(CCC(C)CC(C)(C)C)C1CC(C)CC(C)(C)C)CC(C)(C)C (stereo not given) .
N

* * *

# System: HCT-15 colon
# assayProcedure: NCI-60 one-dose screen, 48 h
# testParameters: 10 µM unless noted
This is part of a sample that, as a whole, favours compounds with a hit. Of some 83,000 tested, about 20% had one in any assay. Activity calls are given as the source filed them. How the source made its calls: active means growth percent below 10; inactive means the rest.
Choose the fitting class; nothing outside True = active, False = inactive is accepted.

Here's what some known entries look like.
Please let me know the test result on file for COc1ccc2c(c1)cn1c3ccc(O)cc3[nH]c(=O)c21 .
True

Please let me know the test result on file for CC(=O)Nc1nc(C)c(C(=O)N/N=C/N2CCOCC2)s1 .
False

Please let me know the test result on file for CCCNC(=O)Oc1ccc(/C(=C(/C)Cc2ccc(OC)cc2)c2ccc(OCCN3CCCC3)cc2)cc1 .
False

---
Please let me know the test result on file for NC(=O)CC(NC(=O)COc1ccc(Cl)cc1Cl)C(=O)O (stereo not given) .
False

Please let me know the test result on file for N=C(N)c1ccc(-c2ccc(-c3ccc(Cl)cc3)s2)s1 .
True

Please let me know the test result on file for C=C(C)C(C(=O)OCC)(C(=O)OCC)C(C)C .
False

Please let me know the test result on file for COc1ccc(CNCCCN2C(=O)c3ccc4c5c(ccc(c35)C2=O)C(=O)N(CCCNCc2ccc(OC)c(OC)c2OC)C4=O)c(OC)c1OC .
True

Please let me know the test result on file for CCCCCCCCCc1cc[n+](CC(=O)c2ccc([N+](=O)[O-])cc2)cc1 .
True

Please let me know the test result on file for Cc1ccc(C(=O)Nc2ccc(CN3CCN(C)CC3)c(C(F)(F)F)c2)cc1C#Cc1cncc2ncccc12 .
True

Please let me know the test result on file for O=C(c1ccccc1)c1ccccc1-c1ccccc1 .
False

* * *

# Test system: T-47D breast
# assayProcedure: NCI-60 one-dose screen, 48 h
# testParameters: 10 µM unless noted
This is part of a sample that, as a whole, favours compounds with a hit. Of some 83,000 tested, about 20% had one in any assay. Calls of active or inactive are those of the source. The calls were made as follows: active = growth percent below 10; inactive = the rest.
Choose the fitting class; nothing outside true (active), false (inactive) is accepted.

Please let me know the test result on file for O=C1C(Br)=CC2C1C1C3CCC3C2(Br)C12OCCO2 (stereo unspecified) .
true

Please let me know the test result on file for N=C(N)c1ccc(-c2ccc(-c3ccc(F)cc3)s2)cc1 .
true

Please let me know the test result on file for CCC(C)CC(N)O (stereo unspecified) .
false

Please let me know the test result on file for Cc1[nH]n(C(=S)Nc2nc3cc(Cl)c(F)cc3s2)c(=O)c1N=Nc1ccc(F)c(Cl)c1 .
false

Please let me know the test result on file for Nc1nc2c(c3ncncc13)C(c1cccc(C(F)(F)F)c1)Cc1ncncc1-2 (stereo unspecified) .
false

Please let me know the test result on file for CCOC(=O)NNc1[nH]c(-c2ccc(OC)cc2)cc1C#N .
false
